Just for reference, the supplement of paper PMC9170038 is where these values come from.

Tested on: MS2 coat protein
experiment-summary: apparent KD of MS2 coat protein; designed switch direction (-1 OFF switch, 1 ON switch): -1; higher = weaker reporter binding
condition-notes: input ligand: microRNA oligo, concentration not stated
attribute-measured: apparent KD of MS2 coat protein (µM)
The reply should contain only the number, in µM.

# seq-string, experimental-target, apparent KD of MS2 coat protein, µM
records = [
    ("CUUUAGCAGGUAGGAUAUACGAAGUGUCGGCGAGUAGAAGGACCUGCGAUCCACUUGAGGAUCACCCAAGUUCGCAGGAGAACA [Mutated MS2 EX1.10] (Eterna round: R96, puzzle: Exclusion NG 1)", "MS2 coat protein", 0.0356),
]

Okay, next one:
Item under review: AGAACUCUAGUAGGAUAUGUCGGAUAUGUUGUUGAGGUUCACCCAACGACGUCAAUGACAGAAGGACAGAAGGACUCCUGUUCA [pwkr exNG2 2xFMN 1xF5.8] (Eterna round: R96, puzzle: Exclusion NG 2) . Reported apparent KD of MS2 coat protein? 3.67

###

System: MS2 coat protein
experiment-summary: apparent KD of MS2 coat protein; designed switch direction (-1 OFF switch, 1 ON switch): -1; higher = weaker reporter binding
condition-notes: input ligand: none
attribute-measured: apparent KD of MS2 coat protein (nM)
The reply should contain only the number, in nM.

Item under review: AUAAAUCAUGUAGGAUAUGCAUAGCAAAGCUAUGCAGAAGGACAUGAGGAUCACCCAUGUCAUUCCGUCUGGAGACAGACGGGA [Mat - Exclusion NG 1 - Mod of JL - D57] (Eterna round: R96, puzzle: Exclusion NG 1) . Reported apparent KD of MS2 coat protein? 32

Item under review: UAUAUGUCAGGAUAUUAGUUGAGGUGGAAUUUAGCCUAUGCUGAGAAGGGACAUGAGGAUCACCCAUGUUCCUC [JR_Ex4_Sub011] (Eterna round: R97, puzzle: Exclusion 4) . Reported apparent KD of MS2 coat protein? 19.1

###

Tested on: MS2 coat protein
experiment-summary: apparent KD of MS2 coat protein; designed switch direction (-1 OFF switch, 1 ON switch): -1; higher = weaker reporter binding
condition-notes: input ligand: FMN 200 uM
Catalogue of apparent KD of MS2 coat protein readings, one per entry.
Put your answer as a value accompanied by its unit after it.

Reference set (2 entries):
# seq-string, apparent KD of MS2 coat protein
measured = [
    ("UUUAGUUCAGGAUAUGUAGAUAUUAACAUGAGGAUCACCCAUGUAGAUCCUGAAUUGACUACAGAAGGGAGCAUUU [Mod of Brourd 17 - Jieux - Exclusion 5] (Eterna round: R97, puzzle: Exclusion 5)", "0.0447 µM"),
    ("CAUCACUGCUAGGAUAUCGAGUCGGAGAAUACUUGAGAAGGAGCUACAUGAGGAUCACCCAUGUCCUCCGCGAU [Eternabot (L2) Solution 72] (Eterna round: R97, puzzle: Exclusion 6)", "0.0473 µM"),
]

Item under review: UUAAAGUCAGGAUAUACAUGAGGAUCACCCAUGUAAAAUUUUAAUUUAAUUUGAAGGUGUAGAAGGGACAAAUU [Ex3 #36] (Eterna round: R97, puzzle: Exclusion 3) . Reported apparent KD of MS2 coat protein? 0.0256 µM

###

System: MS2 coat protein
experiment-summary: apparent KD of MS2 coat protein; designed switch direction (-1 OFF switch, 1 ON switch): 1; higher = weaker reporter binding
condition-notes: input ligand: none
Could you label it 1 if measured apparent KD of MS2 coat protein is 0.3 µM or higher, and 0 otherwise?

Worked examples follow.
# seq-string, discrete-label
measured = [
    ("GCUCGCACGAUGACCCACAUGAGGAUCACCCAUGUGCAUGGGCAGGAUAUCUAGAUUAAGGAUGUAGAGAAGGGUUGAGCGAGC [SameState NG3 #26] (Eterna round: R96, puzzle: Same State NG 3)", 1),
    ("AUAUGAGGAGCAGGAUAUGCGGAGAAGAAAGAAGCAGAAGGGCUCAUGGGACGACAUGAGGAUCACCCAUGUGCUCCGCGAUGA [AK SSNG1-V2-4] (Eterna round: R96, puzzle: Same State NG 1)", 1),
    ("CAGAGCCCAUGGGCCUGACAUGAGGAUCACCCAUGUGGCUUUGAGGAUAUAAGCGGAAACACCACUUAGAAGGCGAAGCCUAAC [Bequedbi] (Eterna round: R96, puzzle: Same State NG 3)", 0),
    ("AUUAUUUGUGCAGGAUAUGAUUAACAUGAGGAUCACCCAUGUGGUGUUGUGAGUAAGGAGAGUGAUCAGAAGGGCAUUUUUUUU [JMF's solution 61] (Eterna round: R96, puzzle: Same State NG 2)", 1),
]

Exam item: decide whether the reported apparent KD of MS2 coat protein for GGUGCUGUCACAGGAUAUCAUGCGGAAAUCGCGUGAGAAGGGUGGACUCUGUCAUUCACGGAGGACAUGAGGAUCACCCAUGUG [SS NG10LRO20] (Eterna round: R96, puzzle: Same State NG 1) is at least 0.3 µM. 0

###

System: MS2 coat protein
experiment-summary: apparent KD of MS2 coat protein, switch OFF state (with FMN for OFF switches, without FMN for ON switches); designed switch direction (-1 OFF switch, 1 ON switch): 1; higher = weaker reporter binding
condition-notes: FMN input: 0 or 200 uM; Eterna round: R93 (includes R88 designs)
Could you label it fulfilled if measured apparent KD of MS2 coat protein is 0.09 µM or higher, and not fulfilled otherwise?

# seq-string, discrete-label
data = [
    ("AAAAGACAUGAGGAUCACCCAUGUUAAGACGUGGGAGGAUAUGCAUGGAAAACAUGCUGUGCAGAAGGCCCGUGUC [SS1 - 23]", "not fulfilled"),
    ("GAAGACAUAGUUCAGGAUAUAUGAAUAGUCACAUGAGGAUCACCCAUGUGCAUUUAUAUGCGCACAUAGAAGGGAGGUAGUUAUC [SameState2 Malc#24]", "not fulfilled"),
]

Exam item: decide whether the reported apparent KD of MS2 coat protein for GAAAAACAUGAGGAUCACCCAUGUAGAAACUAGGGAGGAUAUACUAAGACGAAAGUCGAAGUAGAAGGCCUUUAAA [Same State 1.4m (Mat - Mod of Eli - )] is at least 0.09 µM. not fulfilled

Exam item: decide whether the reported apparent KD of MS2 coat protein for GGGAGGAAGAGAGAGGAUAUCCAAAGGAAAACAUGAGGAUCACCCAUGUAAAAGGUAGGAAAUUGGGAGAAGGCUCAAGAGACCG [salish99-ss2-057] is at least 0.09 µM. not fulfilled

Exam item: decide whether the reported apparent KD of MS2 coat protein for AAAAGACAUGAGGAUCACCCAUGUCCUCGGACAUGAGGAUAUGUACAGACUUCGGUCUGUACAGAAGGCAUGUAAA [SS1 - 1070] is at least 0.09 µM. fulfilled

###

Tested on: MS2 coat protein
experiment-summary: apparent KD of MS2 coat protein; designed switch direction (-1 OFF switch, 1 ON switch): -1; higher = weaker reporter binding
condition-notes: input ligand: microRNA oligo, concentration not stated
attribute-measured: apparent KD of MS2 coat protein (nM)
The reply should contain only the number, in nM.

# seq-string, experimental-target, apparent KD of MS2 coat protein, nM
measured = [
    ("UAAAUAAAUGUAGGAUAUCUGCACGAUUAGUGCAGAGAAGGACAUGAGGAUCACCCAUGUAUAGUAGCUUCGGCUACAAAUAAU [ENG1-C1] (Eterna round: R96, puzzle: Exclusion NG 1)", "MS2 coat protein", 51.9),
    ("UUUUUAGAUGAAGGAUAUACUUAACAUGAGGAUCACCCAUGUGGUGUUGUGAGUGAGUGAGUUUAGUAGAAGGUCAAUUCUUUU [JMF's solution 87] (Eterna round: R96, puzzle: Exclusion NG 2)", "MS2 coat protein", 311),
    ("CUGCUGGAGCGUUGCUUUGGUCGUACAUGAGGAUCACCCAUGUAGGAUAUGGUAAAAUUUGCUUGCUAGAAGGAUAGAGUGGUC [salish99_ExNG3_r04_613] (Eterna round: R96, puzzle: Exclusion NG 3)", "MS2 coat protein", 63.5),
    ("UUGGUUGUGGUAGGAUAUCCGUUGGAAACUGUUGGAGAAGGACCACAGUCACUGGGUCCUUCUUUGGUGGAGUGGAAGAACCAU [pwkr exNG1 F6.17] (Eterna round: R96, puzzle: Exclusion NG 1)", "MS2 coat protein", 192),
    ("ACGAUGAUCGAAAAGUGUAAACUAACAUGAGGAUCACCCAUGUAGGAUAUGGCUACGAAAAGUAGUCAGAAGGGCAUGUCAUCA [3 Av mod - 2] (Eterna round: R96, puzzle: Exclusion NG 3)", "MS2 coat protein", 13.2),
]

Item under review: AAGAGCAUCGGAGGAUAUGGAGCUGAAACGGCGCUAGAAGGCCGUGCAGUGUAACAUGAGGAUCACCCAUGUAGGGACCUCUAA [EX ng 1 4] (Eterna round: R96, puzzle: Exclusion NG 1) . Reported apparent KD of MS2 coat protein? 82.9

Item under review: GCGCAAACGCCAAAAGGCGAAACAACAUGAGGAUCACCCAUGUAGGAUAUCGAUUGCUUUGCAGUCGAGAAGGACGUAAUGCGC [JL ENG3 3.80 Mod 5] (Eterna round: R96, puzzle: Exclusion NG 3) . Reported apparent KD of MS2 coat protein? 14.9

Item under review: CGGGCCGGCCUUCCGGCCGGCCCGACAUGAGGAUCACCCAUGUAGGAUAUCCCGGCUGCCGGCCGGGAGAAGGGCGUGCGCUUU [-47.6, -45.1 kcal, 14% A] (Eterna round: R96, puzzle: Exclusion NG 3) . Reported apparent KD of MS2 coat protein? 20.8
